measurement-notes: UKN2_HCS_IMR90_cell_viability: Viability Assessment in the University of Konstanz (UKN) Leist Lab Neural Crest Cell Migration Assay in human induced IMR90 Pluripotent Stem Cells (UKN2) (AID 2284233);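 note: viability of neural crest cells differentiated from IMR90 iPSC measured by calcein-AM fluorescence imaging; cells exposed to compound for 24 h after a 24 h migration phase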
Activity calls are given as the source filed them. Rule for the calls: active = hit-call score of the fitted dose curve at least 0.9, where 1 is the maximum; inactive = score below 0.9.
Please reply with one of these outcomes: 1 for active, -1 for inactive

Called result for CC(=O)OC/N=[N+](\C)[O-]
-1

Per the assay record, what outcome was assigned to O.O=S(=O)([O-])[O-].[Mn+2] ?
1

Call for entry CCc1ccccc1 :
-1

Outcome? C[C@@H]1CCO[C@H]2Cn3cc(C(=O)NCc4ccc(F)cc4F)c(=O)c(O)c3C(=O)N12
-1

For Brc1cc(Br)c(Oc2cc(Br)c(Br)cc2Br)cc1Br , what call appears in the results of this test?
-1

Query: recorded result category for Cc1[nH]n(C)c(=O)c1C(=O)c1ccc(C(F)(F)F)cc1S(C)(=O)=O in this test
-1

Hi, sorry to bother you, what did the test record for CC(CNC(=S)[S-])NC(=S)[S-].[Zn+2] (stereo not given) ?
-1

----------
Test system: Brachyury (BRA) Protein Expression, TBXT (gene 6862)
measurement-notes: CCTE_Deisenroth_DEVTOX-GLR_Endo_BRA: CCTE's DevTox GLR-Endo Assay Evaluation of Brachyury (BRA) Protein Expression, Deisenroth Lab (AID 2284417)
Active and inactive are the calls of the source. How the source made its calls: active means hit-call score of the fitted dose curve at least 0.9, where 1 is the maximum; inactive means score below 0.9.
measured-property: AC50

>>> value_reported("c1cc(-c2cnn3cc(-c4ccc(OCCN5CCCCC5)cc4)cnc23)ccn1")
"1.44 µM (active)"
>>> value_reported("CC1(C)S[C@@H]2[C@H](NC(=O)Cc3ccccc3)C(=O)N2[C@H]1C(=O)O")
"inactive"
>>> value_reported("Nc1nc2c(ncn2COCCO)c(=O)[nH]1")
"inactive"
>>> value_reported("Nc1cccc2c1C(=O)N(C1CCC(=O)NC1=O)C2=O (centres undefined)")
"29.5 µM (active)"

----------
measurement-notes: TOX21_p53_BLA_p3_viability: Viability Assessment in the Tox21 HCT-116 p53 Agonism Beta-lactamase Assay, Phase 3 (AID 2283593);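 note: cells exposed to compound for 16 h before reading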
Inconclusive results are not listed. The source made the active and inactive calls. The calls were made as follows: active = hit-call score of the fitted dose curve at least 0.9, where 1 is the maximum; inconclusive = response in the unintended direction; inactive = score below 0.9.
measured-property: outcome

// known answers, use as guide
>>> value_reported("CCOC(=O)[C@H](CCc1ccccc1)N[C@@H](C)C(=O)N1Cc2cc(OC)c(OC)cc2C[C@H]1C(=O)O")
"inactive"
>>> value_reported("CCNC(=O)[C@@H]1CCCN1C(=O)[C@H](CCCN=C(N)N)NC(=O)[C@H](CC(C)C)NC(=O)[C@@H](CC(C)C)NC(=O)[C@H](Cc1ccc(O)cc1)NC(=O)[C@H](CO)NC(=O)[C@H](Cc1c[nH]c2ccccc12)NC(=O)[C@H](Cc1cnc[nH]1)NC(=O)[C@@H]1CCC(=O)N1")
"inactive"
>>> value_reported("Oc1ccc(CCNCCCCCCNCCc2ccccc2)cc1O")
"inactive"
>>> value_reported("N[C@@H](C(=O)N[C@@H]1C(=O)N2C(C(=O)O)=C(Cl)CC[C@H]12)c1ccccc1")
"inactive"

Please find the next molecule below.
Identify measured outcome corresponding to Cc1ccc(S(=O)(=O)NC(=O)NC2CCCC2)cc1
inactive

----------
test-target: Cellular tumor antigen p53 (Homo sapiens)
measurement-notes: TOX21_p53_BLA_p3_ratio: Tox21 HCT-116 p53 Agonism Beta-lactamase Assay, Ratio, Phase 3 (AID 2283596)
Inconclusive results are not listed. Active and inactive are the calls of the source. How the source made its calls: active means hit-call score of the fitted dose curve at least 0.9, where 1 is the maximum; inconclusive means response in the unintended direction; inactive means score below 0.9.
Your reply should match one of these outcome classes. active, inactive

These recorded examples may help you get a feel for the data.
>>> label_value("C/C(=C\\C(=O)OCCCCCCCCC(=O)O)C[C@@H]1OC[C@H](C[C@@H]2O[C@H]2[C@@H](C)[C@H](C)O)[C@@H](O)[C@H]1O")
"inactive"
>>> label_value("O=C(O)COc1ccccc1/C=N/NC(=O)c1ccncc1")
"inactive"
>>> label_value("C[C@H]1[C@H](NC(=O)C(=NOC(C)(C)C(=O)O)c2csc(N)n2)C(=O)N1S(=O)(=O)O")
"inactive"
>>> label_value("C1=C\\CC/C=C\\CC/1")
"inactive"
>>> label_value("O=c1[nH][nH]c2ccccc12")
"inactive"
>>> label_value("CCCOc1ccc2nc(NC(=O)OC)[nH]c2c1")
"active"
>>> label_value("CN(C)CCN(Cc1ccc(Cl)cc1)c1ccccn1")
"inactive"
>>> label_value("Cc1ccc(N)nc1")
"inactive"

Per the records of this test, what outcome belongs to NS(=O)(=O)c1ccc(Cl)c(S(N)(=O)=O)c1 ?
inactive

GET /call?item= FC(F)(F)c1cccc(Cl)c1 returns the recorded outcome of this test.
inactive

Short answer needed: outcome of this test for COc1ccc(-c2nc3ccc(C4=NNC(=O)CC4C)cc3[nH]2)cc1 (stereo unspecified) ?
active
